Target: T1, SHROOM2, Q13796
T1 sequence (Q13796 21-118, limits assumed, looked up): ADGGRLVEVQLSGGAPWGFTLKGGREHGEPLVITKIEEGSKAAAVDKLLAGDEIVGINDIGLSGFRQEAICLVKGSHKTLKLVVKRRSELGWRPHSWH
Assay: holdup assay
Design: key: below the threshold = too weak to quantify, mostly under pKd 3.1 to 4
Details: plain residues with an end cap or a label only (N-terminal biotin on a linker: ttds)
TEST READOUT: pKd

{"BINDER": "RSLEEEESQL [GRASP, Q7Z6J2]", "pKd": "below the threshold"}
{"BINDER": "SSRTRRETQL [HPV16-E6, P03126]", "pKd": "below the threshold"}
{"BINDER": "QSARYRDTEL [TJP2, Q9UDY2]", "pKd": "below the threshold"}
{"BINDER": "SRPQRTQTQV [HPV67-E6, A4U7F2]", "pKd": "below the threshold"}
{"BINDER": "SVWLRKETRV [CYSLTR2, Q9NS75]", "pKd": 4.35}
{"BINDER": "PKTPPTDTSV [KIR3DL3, Q8N743]", "pKd": "below the threshold"}

Attention now shifts to the item below.
Entry STLTIFETAL [ABCC4, O15439] : reported pKd = ?
4.44
